Target: T1, MotA (Enterobacteria phage T4, UniProt P22915 1-211)
T1 sequence: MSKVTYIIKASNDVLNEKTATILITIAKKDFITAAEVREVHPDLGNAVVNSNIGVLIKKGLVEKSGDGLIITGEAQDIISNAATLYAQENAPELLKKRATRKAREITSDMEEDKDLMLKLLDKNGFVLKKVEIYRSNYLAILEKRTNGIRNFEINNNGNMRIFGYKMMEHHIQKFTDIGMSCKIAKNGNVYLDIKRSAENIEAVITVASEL
Test: EMSA; EMSA: 0.01 pmol 32P-DNA, 1.7 pmol MotA, native 12% PAGE in 1x TBE at 4 C, other conditions as in ref 14; SPR: biotin-DNA on neutravidin chip, buffer as in ref 2
value.type: Kd

Item EMSA 19-mer unmodified (dsDNA) DNA 1: AATTATTTGCTTTAGATTA DNA 2: TAATCTAAAGCAAATAATT has what recorded Kd?
~140 nM
